Tested on: rabbit vWF A1 domain (SEQ ID NO 6)
Sequence (as listed by the source): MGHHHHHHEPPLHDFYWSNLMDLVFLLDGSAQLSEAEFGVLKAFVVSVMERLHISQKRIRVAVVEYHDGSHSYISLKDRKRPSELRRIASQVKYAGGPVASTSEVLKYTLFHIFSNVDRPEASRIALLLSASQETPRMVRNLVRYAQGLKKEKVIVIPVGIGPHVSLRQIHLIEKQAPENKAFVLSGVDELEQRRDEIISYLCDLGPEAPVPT
assay-text: 3-point dot blot screen, rabbit vWF A1 domain
Type: binding
run-parameters: 3-point dot blot screen, 20 nM rabbit vWF A1 domain; ratio of fraction of aptamer bound with target protein to fraction bound without protein
property: Screen Rabbit/No Protein
The answer should be a number; do not append a unit.

Query string: // Screen Rabbit/No Protein lookup, key: AMX238.H11: DNA SELEX 2 aptamer clone (nucleic acid, DNA, backbone not given here, DNA SELEX 2 aptamer clone) DNA: CTACCTACGATCTGACTAGCTTTCAGTCTTTCACATTTATAGGGTTTGGCATTGGGTCTGGCTTACTCTCATGTAGTTCC
Result string: 1.14

Query string: // Screen Rabbit/No Protein lookup, key: AMX237.E10: DNA SELEX 2 aptamer clone (nucleic acid, DNA, backbone and methylation of C not given here, DNA SELEX 2 aptamer clone) DNA: CTACCTACGATCTGACTAGCGGAATGAGAATGCTGGTGGATTGCTCAGGTCTGCTGGCTGCTTACTCTCATGTAGTTCC
Result string: 6.04

Query string: // Screen Rabbit/No Protein lookup, key: AMX237.F6: DNA SELEX 2 aptamer clone (nucleic acid, DNA, backbone not given here, DNA SELEX 2 aptamer clone) DNA: CTACCTACGATCTGACTAGCTCCAGTGTTTTATCTAATAACCGTGCGGTGCCTCCGTGATGCTTACTCTCATGTAGTTCC
Result string: 1.21

Query string: // Screen Rabbit/No Protein lookup, key: AMX238.F3: DNA SELEX 2 aptamer clone (nucleic acid, DNA, backbone not given here, DNA SELEX 2 aptamer clone) DNA: CTACCTACGATCTGACTAGCGTGCAGTGCCTATTTTAGGTCGTGCGGGGCCTCCGTCACGCTTACTCTCATGTAGTTCC
Result string: 2.72

Data origin, for the record: patent US7998940B2
